Cited source for all entries: PubChem BioAssay (EPA / NIEHS)

Test: ATG_TCF_b_cat_CIS: Attagene CIS-FACTORIAL HepG2 Assay for human T-Cell-Factor with beta-catenin (TCF/b-cat) (AID 2282965)
Details: HepG2 TCF/beta-catenin cis-reporter transcription, actives raise or lower the signal
Active and inactive are the calls of the source. The calls were made as follows: active = hit-call score of the fitted dose curve at least 0.9, where 1 is the maximum; inactive = score below 0.9.
# output must be one of class 1 for active, class 0 for inactive

Query string: Field: outcome | Entry: CCOc1ccc2c(c1)C(C)=CC(C)(C)N2
Result string: class 1

Query string: Would you mind telling me which call this test gave Cc1cccc(C)c1O ?
Result string: class 0

Query string: GET /call?item= CCCCCCCCCCCCCO returns the recorded outcome of this test.
Result string: class 1

Query string: Can you look up the reported call for C1CCC(SSC2CCCCC2)CC1 for me?
Result string: class 0

* * *

Assay: ArunA_Migration_hNC: ArunA Biomedical's Oris Neural Crest (hNC) Cell Migration Assay (AID 2283755)
Records with an inconclusive call do not appear. The source made the active and inactive calls. Rule for the calls: active = hit-call score of the fitted dose curve at least 0.9, where 1 is the maximum; inconclusive = response in the unintended direction; inactive = score below 0.9.
Give one outcome, nothing more. List: T (active), F (inactive)

Query string: Which outcome was assigned to Cc1cc(NC(=O)C(=O)O)cc(C)c1Oc1ccc(O)c2c1CCC2 in this test?
Result string: F

Query string: Recorded test outcome, item O=c1c(O)c(-c2ccc(O)c(O)c2)oc2cc(O)cc(O)c12
Result string: T

Query string: Outcome logged for COC(=O)c1ccc(O)cc1 in this assay:
Result string: F

Query string: Call for entry CCCCC(CC)COC(=O)CC(C(=O)OCC(CC)CCCC)S(=O)(=O)O (configuration not stated) :
Result string: T

Query string: Tell me the recorded outcome of this test for CCCc1cc(=O)[nH]c(=S)[nH]1 .
Result string: F

Query string: GET /call?item= Oc1ccc2ccccc2c1N=Nc1ccccc1 returns the recorded outcome of this test.
Result string: F

Query string: Hi, sorry to bother you, what did the test record for OC[C@@H](O)[C@@H](O)[C@H](O)[C@H](O)CO ?
Result string: F

* * *

Target: Estrogen receptor (Homo sapiens) (UniProt P03372)
Sequence (P03372 whole entry, looked up): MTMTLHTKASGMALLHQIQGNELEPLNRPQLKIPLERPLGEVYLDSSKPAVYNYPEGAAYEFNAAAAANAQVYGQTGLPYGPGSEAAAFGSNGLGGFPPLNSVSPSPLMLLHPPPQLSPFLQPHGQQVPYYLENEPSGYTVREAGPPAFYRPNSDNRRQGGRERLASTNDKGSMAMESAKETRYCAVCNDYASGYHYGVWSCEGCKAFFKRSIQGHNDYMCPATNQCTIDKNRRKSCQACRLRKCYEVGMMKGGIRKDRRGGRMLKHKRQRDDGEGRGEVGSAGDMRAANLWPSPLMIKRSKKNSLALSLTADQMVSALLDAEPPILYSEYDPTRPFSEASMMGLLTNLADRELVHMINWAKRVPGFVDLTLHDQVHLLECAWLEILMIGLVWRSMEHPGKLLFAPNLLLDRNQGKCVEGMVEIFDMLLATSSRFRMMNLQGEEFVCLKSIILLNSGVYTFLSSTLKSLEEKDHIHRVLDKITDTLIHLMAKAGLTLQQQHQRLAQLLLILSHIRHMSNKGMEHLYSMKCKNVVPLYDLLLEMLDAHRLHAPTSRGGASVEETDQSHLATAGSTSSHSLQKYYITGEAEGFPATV
Test: ATG_ERa_TRANS: Attagene TRANS-FACTORIAL HepG2 Assay for human Estrogen Receptor alpha (ERa) (AID 2282970)
Details: HepG2 Attagene TRANS ERa GAL4 reporter, mRNA
Inconclusive results are not listed. Active and inactive are the calls of the source. How the source made its calls: active means hit-call score of the fitted dose curve at least 0.9, where 1 is the maximum; inconclusive means response in the unintended direction; inactive means score below 0.9.
# output must be one of active, inactive

Query string: Test call, this molecule: COc1cc(C=O)ccc1O
Result string: inactive

Query string: Fill in: this test's call for C=CCOC(=O)c1ccccc1C(=O)OCC=C is ___
Result string: active

Query string: Per the records of this test, what outcome belongs to Cc1cccc([N+](=O)[O-])c1C ?
Result string: active

Query string: Which outcome did this test record for the molecule COC(=O)c1ccc(O)cc1 ?
Result string: active

Query string: So what was the verdict on Oc1ccc2c(c1)OC[C@@H](N1CCC(O)(c3ccc(F)cc3)CC1)[C@H]2O in this test?
Result string: active

Query string: Record lookup: outcome of this test for CCCCCCCCCCO ?
Result string: inactive

Query string: Dear colleague, could you share the recorded outcome for CC(=O)C(C)=CC1C(C)=CCCC1(C)C (stereo not drawn) when you have a moment?
Result string: active

Query string: # fetch the recorded call for Cc1ccccc1Cl here
Result string: inactive

* * *

Read-out: Cytochrome P450 (CYP2B6), CYP2B6 (gene 1555)
Test: LTEA_HepaRG_CYP2B6: Life Technologies and Expression Analysis (LTEA) Assay for Cytochrome P450 (CYP2B6) using HepaRG (AID 2283481)
Settings: mRNA level, 48 h; actives raise or lower the signal
Calls of active or inactive are those of the source. Rule for the calls: active = hit-call score of the fitted dose curve at least 0.9, where 1 is the maximum; inactive = score below 0.9.
Output constraint: value belongs to active, inactive

Query string: Write down the call the test reported for this compound. Item: COc1cc(S(=O)(=O)O)c(C)cc1N=Nc1c(O)ccc2cc(S(=O)(=O)O)ccc12
Result string: inactive

Query string: Please share the test call associated with COc1cc(C=O)ccc1O .
Result string: inactive

Query string: What call does the record list for COc1ccc(C)cc1N ?
Result string: active

Query string: Tell me the assay call for COc1cc(-c2nc(NC(=O)c3cc4cc(C)cc(C)c4n3CC(=O)O)sc2CCC2CCCCC2)c(OC)cc1Cl please.
Result string: active

Query string: GET /call?item= CCCCCCCC=O returns the recorded outcome of this test.
Result string: inactive

Query string: Can you look up the reported call for Nc1ccccc1N for me?
Result string: active

Query string: Outcome logged for CCCc1cc(=O)[nH]c(=S)[nH]1 in this assay:
Result string: inactive

Query string: Which result was noted for this compound in the test: CCCCCCCCCCCC(=O)OC
Result string: inactive

Query string: Any idea what this test logged for NCC1(Cc2noc(=O)[nH]2)CCCCC1 ?
Result string: inactive

Query string: Field: outcome | Entry: CC1(C)CC(N=C=O)CC(C)(CN=C=O)C1 (configuration not stated)
Result string: inactive

Query string: Which outcome was entered for the compound Cc1cccc(Nc2cc(Cl)nc(SCC(=O)O)n2)c1C in this test?
Result string: active

Query string: Hi, do you know how Nc1ccc(S(=O)(=O)c2ccc(N)cc2)cc1 came out in this test?
Result string: active

Query string: Assay result, entry CCCCCC(=O)O — outcome?
Result string: inactive

Query string: // param item: COCCOCCOC ; yields the recorded call
Result string: active

Query string: Hey, what did the test say about CC1=C(/C=C/C(C)=C/C=C/C(C)=C/CO)C(C)(C)CCC1 ?
Result string: active

Query string: In this assay, the call recorded for Cc1cc(=O)[nH]c(=S)[nH]1 was what?
Result string: inactive

Query string: GET /call?item= Nc1nc(N)c2nc(CNc3ccc(C(=O)N[C@@H](CCC(=O)O)C(=O)O)cc3)cnc2n1 returns the recorded outcome of this test.
Result string: inactive

Query string: Dear all, I need the recorded test outcome for C=CCc1ccc(O)c(OC)c1 , thank you.
Result string: inactive

Query string: Could you please tell me the result logged for FC(F)(F)C(F)(F)C(F)(F)C(F)(F)C(F)(F)C(F)(F)CCI in this assay?
Result string: inactive

Query string: So what was the verdict on Cc1nc(-c2ccc3c(c2)CCN(CCC2CCC(NC(=O)/C=C/c4ccc(F)cc4)CC2)CC3)no1 (configuration not stated) in this test?
Result string: inactive

Query string: Outcome logged for CCOc1ccc2c(c1)C(C)=CC(C)(C)N2 in this assay:
Result string: active

Query string: Recorded test call requested for Oc1ccc2c(c1)OC[C@@H](N1CCC(O)(c3ccc(F)cc3)CC1)[C@H]2O
Result string: inactive

Query string: Tell me the assay call for C=CCOC(=O)c1ccccc1C(=O)OCC=C please.
Result string: inactive

Query string: Assay result, entry CN1CCCC1=O — outcome?
Result string: inactive

Query string: Which result was noted for this compound in the test: CCOC(=O)CCC(=O)OCC
Result string: active

Query string: Record request — test call for O=c1[nH]cc(F)c(=O)[nH]1
Result string: inactive

Query string: Tell me the assay call for CCOC(=O)C(C)(C)Oc1ccc(Cl)cc1 please.
Result string: inactive

Query string: # outcome recorded in this test, key = CNCc1cc(F)ccc1Oc1ccc(Cl)c(Cl)c1
Result string: inactive

Query string: Name the outcome recorded for Cc1ccc(C(C)C)c(O)c1 in the assay.
Result string: inactive

Query string: Write down the call the test reported for this compound. Item: CCCCCCCCCCCCCCCC
Result string: inactive

Query string: Which outcome was assigned to CCCCCCCCCCCCCO in this test?
Result string: inactive

Query string: Lab log entry: CCNc1cccc(C)c1 — outcome as called in the assay?
Result string: inactive
